Origin of the recorded values: ChEMBL document CHEMBL2010658

test.system: Caspase-1 (Homo sapiens)
Sequence (P29466 120-297 limits assumed): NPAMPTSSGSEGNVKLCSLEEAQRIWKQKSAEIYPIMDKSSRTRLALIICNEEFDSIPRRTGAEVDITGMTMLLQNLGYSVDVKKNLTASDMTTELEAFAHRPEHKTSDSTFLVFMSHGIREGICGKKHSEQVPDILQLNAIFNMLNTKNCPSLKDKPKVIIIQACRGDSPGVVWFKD
Sequence (P29466 317-404 limits assumed): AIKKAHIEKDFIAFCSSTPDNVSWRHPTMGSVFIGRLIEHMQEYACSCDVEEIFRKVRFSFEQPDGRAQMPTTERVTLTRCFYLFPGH
run.description: Inhibition of caspase 1 by signal transduction fluorometric assay
endpoint.name: IC50

Please give the measured IC50 for this compound: CC(=O)N[C@H](C(=O)O[C@H]1CCC(C)(C)[C@@H]2CC=C3C(=O)OC[C@]3(O)[C@@]12C)C(C)C (relative stereo)
90 µM
